Test system: EW-1 (Ewing's Sarcoma)
Experiment: Bliss excess, mean over the matrix (fraction); higher = more synergy
Below, each entry is listed alongside its reported Bliss excess.
readout-name: Bliss excess

- molecule: "Cc1c2c(nn1C)CSCc1cc(n(C)n1)CSc1cc(c3ccccc3c1)OCCCc1c(C(=O)O)n(C)c3c-2c(Cl)ccc13 [AZD5991] + CCN(CCO)CCCOc1ccc2c(Nc3cc(CC(=O)Nc4cccc(F)c4)[nH]n3)ncnc2c1 [AZD2811] (first compound max 1 µM, 7x7, partner max 1 µM)"
  reading: 0.0979
- molecule: "CN(CCO)CC[C@H](CSc1ccccc1)Nc1ccc(S(=O)(=O)NC(=O)c2ccc(N3CCC([C@@H](O)c4ccccc4-c4ccc(Cl)cc4)CC3)cc2)cc1S(=O)(=O)C(F)(F)F [AZD4320] + C[C@@H]1COCCN1C2=NC(=NC(=C2)C3(CC3)[S@](=N)(=O)C)C4=C5C=CNC5=NC=C4 [AZD6738] (first compound max 1 µM, 7x7, partner max 10 µM)"
  reading: 0.0574

----------
Tested on: SKN (Other Solid Carcinomas)
Experiment: combination Emax (second highest fraction inhibited in the dose matrix, 72 h); higher = more inhibition; extreme values may be limits of the assay
Below, each entry is listed alongside its reported combination Emax.

- compound: "C[C@@H](c1ccc2nccn2c1)n1nnc2ncc(-c3cnn(C)c3)nc21 [Savolitinib] + Cc1c2c(nn1C)CSCc1cc(n(C)n1)CSc1cc(c3ccccc3c1)OCCCc1c(C(=O)O)n(C)c3c-2c(Cl)ccc13 [AZD5991] (first compound max 1 µM, 7x7, partner max 1 µM)"
  combination Emax: 0.219
- compound: "CN(CCO)CC[C@H](CSc1ccccc1)Nc1ccc(S(=O)(=O)NC(=O)c2ccc(N3CCC([C@@H](O)c4ccccc4-c4ccc(Cl)cc4)CC3)cc2)cc1S(=O)(=O)C(F)(F)F [AZD4320] + C[C@@H](Nc1cc(F)cc(F)c1)c1cc(C(=O)N(C)C)cc2c(=O)cc(N3CCOCC3)oc12 [AZD8186] (first compound max 1 µM, 7x7, partner max 3 µM)"
  combination Emax: 0.634
- compound: "CN(C)CCCOc1ccc(-c2ccc3ncc4c(c3c2)n(C2CCOCC2)c(=O)n4C)cn1 [AZD0156] + O=C(c1cc(Cc2n[nH]c(=O)c3ccccc23)ccc1F)N1CCN(C(=O)C2CC2)CC1 [Olaparib] (first compound max 3 µM, partner max 3 µM)"
  combination Emax: 0.188

----------
Below, each entry is listed alongside its reported Bliss excess.
Test system: OE33 (Esophageal Adenocarcinoma)
Assay: Bliss excess, mean over the matrix (fraction); higher = more synergy

- compound: "C=CCn1c(=O)c2cnc(Nc3ccc(N4CCN(C)CC4)cc3)nc2n1-c1cccc(C(C)(C)O)n1 [AZD1775] + CCc1c2c(nc3ccc(O)cc13)-c1cc3c(c(=O)n1C2)COC(=O)[C@]3(O)CC [SN-38] (first compound max 1 µM, partner max 0.3 µM)"
  target: "OE33 (Esophageal Adenocarcinoma)"
  Bliss excess: -0.0694
- compound: "Cn1cnc2c(F)c(Nc3ccc(Br)cc3Cl)c(C(=O)NOCCO)cc21 [Selumetinib] + C[C@@H]1COCCN1C2=NC(=NC(=C2)C3(CC3)[S@](=N)(=O)C)C4=C5C=CNC5=NC=C4 [AZD6738] (first compound max 10 µM, 7x7, partner max 10 µM)"
  target: "OE33 (Esophageal Adenocarcinoma)"
  Bliss excess: -0.018
- compound: "NC1(C(=O)N[C@@H](CCO)c2ccc(Cl)cc2)CCN(c2ncnc3[nH]ccc23)CC1 [Capivasertib] + Cn1cnc2c(F)c(Nc3ccc(Br)cc3Cl)c(C(=O)NOCCO)cc21 [Selumetinib] (first compound max 10 µM, 7x7, partner max 10 µM)"
  target: "OE33 (Esophageal Adenocarcinoma)"
  Bliss excess: 0.0301
- compound: "CC1(C)CCC(CN2CCN(c3ccc(C(=O)NS(=O)(=O)c4ccc(NCC5CCOCC5)c([N+](=O)[O-])c4)c(Oc4cnc5[nH]ccc5c4)c3)CC2)=C(c2ccc(Cl)cc2)C1 [Venetoclax] + C=CCn1c(=O)c2cnc(Nc3ccc(N4CCN(C)CC4)cc3)nc2n1-c1cccc(C(C)(C)O)n1 [AZD1775] (first compound max 1 µM, partner max 1 µM)"
  target: "OE33 (Esophageal Adenocarcinoma)"
  Bliss excess: -0.0144
